assay.comment: Immunotoxin (HA22) sensitization/mitigation study. Vehicle arm (PBS) (AID 1159510)
applied.conditions: cancer cells viability with PBS vehicle (HA22 study); series mostly up to 46.1 µM
Calls of active or inactive are those of the source. The rule behind the calls is not given here.
Give your call using only these classes: active, inactive

As a guide, the following entries are already answered.
[[record]]
compound = "CC(=O)OCCN1C(=O)c2c(C)nc3ccc(S(=O)(=O)N4CCOCC4)cc3c2C1=O"
label_value = "inactive"

[[record]]
compound = "CC(C)(C)c1cc(C(C)(C)C)c(NC(=O)c2c[nH]c3ccccc3c2=O)cc1O"
label_value = "active"

[[record]]
compound = "CN1C(=O)C(Cc2c[nH]c3ccccc23)NC1=S (centres undefined)"
label_value = "inactive"

[[record]]
compound = "CC(C)CC(=O)Nc1n[nH]c2c1CN(C(=O)C1CCN(C)CC1)C2(C)C"
label_value = "active"

[[record]]
compound = "CC(=O)Nc1ccc(OC[C@](C)(O)C(=O)Nc2ccc([N+](=O)[O-])c(C(F)(F)F)c2)cc1"
label_value = "inactive"

[[record]]
compound = "CC(=O)N(C)C1(c2ccccc2)CCN(CCC[C@]2(c3ccc(Cl)c(Cl)c3)CCCN(C(=O)c3ccccc3)C2)CC1"
label_value = "active"

[[record]]
compound = "O=C(Nc1ccc(OC(F)(F)F)cc1)c1sccc1NCc1ccnc2ccccc12"
label_value = "active"

[[record]]
compound = "COc1c(C)cnc(Cn2cnc3c(Cl)nc(N)nc32)c1C"
label_value = "active"


Qu. For this compound, state the assay outcome: O=C(C=Cc1c(C(=O)O)[nH]c2cc(Cl)cc(Cl)c12)Nc1ccccc1
Ans. inactive

Qu. And for CNC1CCN(C(Cc2cccc(-c3ccncc3)c2)C(=O)c2sc3c(F)ccc(F)c3c2Cl)CC1 (centres undefined) ?
Ans. active

Qu. Please give the result for Nc1cccc(S(=O)(=O)N2CCCN(S(=O)(=O)c3ccc4c(c3)OCCO4)CC2)c1 too.
Ans. inactive

Qu. Another compound: NC(CO)(CO)CCc1ccc(Sc2cccc(OCc3ccccc3)c2)cc1Cl
Ans. active

Qu. Next: CCNC(=O)c1noc(-c2cc(C(C)C)c(O)cc2O)c1-c1ccc(CN2CCOCC2)cc1
Ans. active

====

Tested on: MKL-2
assay.comment: qHTS assay to identify novel small-molecules to repurpose for Merkel cell carcinoma treatment (AID 1296009); note: nearly all actives have a fitted effect of over 60% in size
applied.conditions: MCC and control cell lines, CellTiter-Glo viability, 72 h; series mostly up to 46 µM
Records with an inconclusive call do not appear. Calls of active or inactive are those of the source. The call rests on the fitted dose curve; in most records, active means well fitted inhibition curve with a large enough effect; inconclusive means small, poorly fitted or top-dose-only effect; inactive means flat fitted curve, though single readings scatter.
Please reply with one of these outcomes: active, inactive

[[record]]
compound = "C[C@]12CCC(=O)C(O)=C1CC[C@@H]1[C@H]3CCC(=O)[C@@]3(C)CC[C@@H]12"
label_value = "inactive"

[[record]]
compound = "CCN1CCN(C(=O)Cc2ccc(Nc3ncc(F)c(Nc4ccc(C(=O)Nc5ccccc5Cl)cc4)n3)cc2)CC1"
label_value = "active"

[[record]]
compound = "COc1ccc(C(=O)c2c(C)n(CCN3CCOCC3)c3cc(I)ccc23)cc1"
label_value = "active"

[[record]]
compound = "CC[C@H]1C=CC=CC[C@@H](C)[C@H](O)[C@@](C)(O)C(=O)[C@@H](C)[C@H](O)[C@@H](C)C(=O)[C@@H](C)[C@H](O)[C@@H](C)C=CC(=O)O[C@@H]2[C@@H](C)[C@H](CC1)O[C@]1(CC[C@H](C)[C@H](C[C@@H](C)O)O1)[C@H]2C"
label_value = "active"

[[record]]
compound = "Cc1ccccc1-n1c(Cn2ncc3c(N)ncnc32)nc2cccc(C)c2c1=O"
label_value = "inactive"

[[record]]
compound = "CC1=NN=C(c2ccc(N)cc2)c2cc3c(cc2C1)OCO3"
label_value = "inactive"

[[record]]
compound = "COc1nn(CSP(=S)(OC)OC)c(=O)s1"
label_value = "active"

[[record]]
compound = "CC(=CCCC1=CCC(C2=CC(=O)OC2O)OC1O)CCC1=C(C)CCCC1(C)C (configuration not stated)"
label_value = "inactive"

[[record]]
compound = "CCCCOC(=O)c1ccccc1C(=O)OCc1ccccc1"
label_value = "inactive"

[[record]]
compound = "COC1=CC(C)=C[C@@H](C)[C@@H](O)[C@@H](C)CC(C)=CC=C[C@H](OC)[C@H]([C@@H](C)[C@@H](O)[C@H](C)[C@@]2(O)C[C@@H](O)[C@H](C)[C@@H](C(C)C)O2)OC1=O"
label_value = "active"


Qu. Write down the call the test reported for this compound. Item: CC(C)N(CCNC(=O)CN1CCCC1=O)C(C)C
Ans. inactive

Qu. COc1ccc(CC2NCCc3cc(OC)c(OC)cc32)cc1OC (configuration not stated) , same question.
Ans. inactive

Qu. Also check O=C(O)c1cc(Oc2ccc(C(F)(F)F)cc2Cl)ccc1[N+](=O)[O-]
Ans. inactive

Qu. Next up: O=C1C=CC[C@@H]2[C@H]3CCCN4CCC[C@@H](CN12)[C@@H]34
Ans. inactive

Qu. Thanks! And COC(=O)[C@@H](N)CCCN=C(N)N[N+](=O)[O-] ?
Ans. inactive

Qu. Now the same for O=c1[nH]c2ccc(Cl)cc2c(N[C@@H]2CN3CCC2CC3)c1-c1nc2ccccc2[nH]1
Ans. active
